Sourced from patent US9290516B2

assay: Solubility Experiment 3 (chlorobenzene, visual observation); assay type: physicochemical; conditions: organic solvent or mixture, thermodynamic from solid, 1 mg in 1 mL chlorobenzene, heated to 100° C., read-out: Solubility chlorobenzene (° C.) 100
Readout: solubility

Some solved cases for reference:
Compound: CC(F)(F)c1ccc(-c2ccc(-c3c4c(c(-c5ccc(-c6ccc(C(C)(F)F)cc6)s5)c5nsnc35)N=S=N4)s2)cc1
solubility: < 1000 µg/mL
//
Compound: CCCCCCCCCc1ccc(-c2ccc(-c3c4c(c(-c5ccc(-c6ccc(CCCCCCCCC)cc6)s5)c5nsnc35)N=S=N4)s2)cc1 [BBT-(14), reference compound]
solubility: > 1000 µg/mL
//
Compound: CCCCCCCCCC(F)(F)Oc1ccc(-c2ccc(-c3c4c(c(-c5ccc(-c6ccc(OC(F)(F)CCCCCCCCC)cc6)s5)c5nsnc35)N=S=N4)s2)cc1
solubility: > 1000 µg/mL
//
Compound: Cc1ccc(-c2ccc(-c3c4c(c(-c5ccc(-c6ccc(C)cc6)s5)c5nsnc35)N=S=N4)s2)cc1 [BBT-(12), reference compound]
solubility: > 1000 µg/mL

Record summary for CCCCCCCCCCC(F)(F)c1ccc(-c2ccc(-c3c4c(c(-c5ccc(-c6ccc(C(F)(F)CCCCCCCCCC)cc6)s5)c5nsnc35)N=S=N4)s2)cc1 : reported solubility = > 1000 µg/mL

Record summary for CC(F)(F)Oc1ccc(-c2ccc(-c3c4c(c(-c5ccc(-c6ccc(OC(C)(F)F)cc6)s5)c5nsnc35)N=S=N4)s2)cc1 : reported solubility = < 1000 µg/mL

Record summary for FC(F)(F)c1ccc(-c2ccc(-c3c4c(c(-c5ccc(-c6ccc(C(F)(F)F)cc6)s5)c5nsnc35)N=S=N4)s2)cc1 [BBT-(11), reference compound] : reported solubility = < 1000 µg/mL

Record summary for FC(F)(F)Oc1ccc(-c2ccc(-c3c4c(c(-c5ccc(-c6ccc(OC(F)(F)F)cc6)s5)c5nsnc35)N=S=N4)s2)cc1 : reported solubility = > 1000 µg/mL

Record summary for FC(F)(F)Oc1ccccc1-c1ccc(-c2c3c(c(-c4ccc(-c5ccccc5OC(F)(F)F)s4)c4nsnc24)N=S=N3)s1 : reported solubility = > 1000 µg/mL

Record summary for COc1ccc(-c2ccc(-c3c4c(c(-c5ccc(-c6ccc(OC)cc6)s5)c5nsnc35)N=S=N4)s2)cc1 [BBT-(13), reference compound] : reported solubility = < 1000 µg/mL

Record summary for FC(F)(F)Oc1cccc(-c2ccc(-c3c4c(c(-c5ccc(-c6cccc(OC(F)(F)F)c6)s5)c5nsnc35)N=S=N4)s2)c1 : reported solubility = > 1000 µg/mL

Record summary for CCCCCCCCCCOC(F)(F)c1ccc(-c2ccc(-c3c4c(c(-c5ccc(-c6ccc(C(F)(F)OCCCCCCCCCC)cc6)s5)c5nsnc35)N=S=N4)s2)cc1 : reported solubility = > 1000 µg/mL

Record summary for CC(C)CC(F)c1ccc(-c2ccc(-c3c4c(c(-c5ccc(-c6ccc(C(F)CC(C)C)cc6)s5)c5nsnc35)N=S=N4)s2)cc1 (stereo not shown) : reported solubility = < 1000 µg/mL
